# experiment_notes: Human Plasma Protein Binding (Test B)
# Assay type: in vitro ADME
# experimental_setup: fraction unbound (fu)
measured_attribute: Test B Human Plasma Protein Binding (% free)

{"compound": "COc1cc(F)c(O[C@H]2CC[C@@H](C(=O)O)CC2)cc1C(=O)N[C@@H]1[C@H]2CC[C@H](C2)[C@@H]1C(=O)Nc1cccc(OC(F)F)c1", "unit_info": "% free", "recorded_measurement": 1.6}
{"compound": "COc1cc(F)c(O[C@H]2CC[C@@H](C(=O)O)CC2)cc1C(=O)N[C@@H]1[C@H]2CC[C@H](C2)[C@@H]1C(=O)Nc1cc(C(F)(F)F)ncn1", "unit_info": "% free", "recorded_measurement": 3.7}
{"compound": "CCC1(CNC(=O)[C@H]2[C@@H]3CC[C@@H](C3)[C@H]2NC(=O)c2cc(O[C@H]3CC[C@@](C)(C(=O)O)CC3)c(C#N)cc2OC)CCC1", "unit_info": "% free", "recorded_measurement": 4.1}
{"compound": "COc1cc(C#N)c(O[C@H]2CC[C@@](C)(C(=O)O)CC2)cc1C(=O)N[C@@H]1[C@H]2CC[C@H](C2)[C@@H]1C(=O)NC1(C2CC2)CC1", "unit_info": "% free", "recorded_measurement": 16}
{"compound": "COc1cc(F)c(O[C@H]2CC[C@@](C)(C(=O)O)CC2)cc1C(=O)Nc1c(C)cccc1C(=O)NCC1(C)CCC1", "unit_info": "% free", "recorded_measurement": 3.2}

(I) COc1ccc(O[C@H]2CC[C@@H](C(=O)O)CC2)cc1C(=O)N[C@@H]1[C@H]2CC[C@H](C2)[C@@H]1C(=O)Nc1cccc(S(=O)(=O)C(F)(F)F)c1
(II) COc1cc(C#N)c(O[C@H]2C[C@@]3(C2)C[C@H](C(=O)O)C3)cc1C(=O)N[C@@H]1[C@H]2CC[C@H](C2)[C@@H]1C(=O)NCC1(C)CCC1 (single isomer, unassigned)
Task for the reader: decide whether I or II has the larger Test B Human Plasma Protein Binding (% free). Pick one and reply with its label.
II
(II: 4.2 % free, I: 2.1 % free)

(1) COc1cc(F)c(OCCCCCCC(=O)O)cc1C(=O)N[C@@H]1[C@H]2CC[C@H](C2)[C@@H]1C(=O)Nc1cccc(S(=O)(=O)C(F)(F)F)c1
(2) CC1(CNC(=O)[C@H]2[C@@H]3CC[C@@H](C3)[C@H]2NC(=O)c2cc(O[C@H]3CC[C@@](C)(C(=O)O)CC3)c(F)cc2F)CCC1
(3) COc1cc(C#N)c(O[C@H]2CC[C@@](C)(C(=O)O)CC2)cc1C(=O)N[C@@H]1[C@H]2CC[C@H](C2)[C@@H]1C(=O)NCC(C)(F)F
(4) COc1cc(F)c(-c2ccc3c(c2)OC[C@@H]3CC(=O)O)cc1C(=O)N[C@@H]1[C@H]2CC[C@H](C2)[C@@H]1C(=O)Nc1cccc(S(=O)(=O)C(F)(F)F)c1
(5) COc1cc(F)c(-c2cccc(CC(=O)O)c2)cc1C(=O)N[C@@H]1CCC[C@@H]1C(=O)Nc1cccc(S(=O)(=O)C(F)(F)F)c1
Put the compounds in ascending order of Test B Human Plasma Protein Binding (% free). Field: ranking. Enter the labels in the order requested.
4, 5, 1, 2, 3
(4: 0.30 % free, 5: 0.55 % free, 1: 0.82 % free, 2: 1.4 % free, 3: 26 % free)

Values were extracted from patent US11667602B2.
